Hey, just so you know, these numbers are from ChEMBL document CHEMBL5500393.

Target: UniProt Q6GI75
Sequence (Q6GI75 whole entry): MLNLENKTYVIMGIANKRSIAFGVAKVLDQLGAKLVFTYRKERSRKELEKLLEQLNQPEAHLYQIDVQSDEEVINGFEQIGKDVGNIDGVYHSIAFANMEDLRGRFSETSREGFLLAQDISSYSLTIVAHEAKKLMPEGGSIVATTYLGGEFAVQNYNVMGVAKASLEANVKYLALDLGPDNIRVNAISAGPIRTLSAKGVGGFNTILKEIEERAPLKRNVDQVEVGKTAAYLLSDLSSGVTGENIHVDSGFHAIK
Experiment: Inhibition of N-terminal his 6 tagged Staphylococcus aureus Fabi (1 to […] residues) expressed in Escherichia coli BL21 at 1 uM incubated for 30 mins in presence of NADPH by fluorescence based microplate reader analysis relative to control
Hi, to clarify the labels: Y covers inhibition from 4% upward, N covers anything below 4%.

>  <Molecule>
Cc1c(Br)cccc1N1CC(c2nc3ccccc3[nH]2)CC1=O (stereo unspecified)

>  <Group>
Y

$$$$
>  <Molecule>
Cn1c(C2CC(=O)N(c3cccc(-c4ccccc4)c3)C2)nc2ccccc21 (stereo unspecified)

>  <Group>
N

$$$$
>  <Molecule>
Cc1c(Br)cccc1N1CC(c2nc3ccccc3n2C)CC1=O (stereo unspecified)

>  <Group>
Y

$$$$
>  <Molecule>
Cc1cccc(C(=O)NCCNC(=O)c2nc3ccccc3n2C)c1C

>  <Group>
N

$$$$
>  <Molecule>
COc1ccc(N2CC(c3nc4ccccc4n3C)CC2=O)cc1Br (stereo unspecified)

>  <Group>
Y

$$$$
>  <Molecule>
Cc1c(Br)cccc1N1C[C@@H](c2nc3ccccc3n2C)CC1=O

>  <Group>
Y

$$$$
>  <Molecule>
Cn1c(C2CC(=O)N(c3ccc(F)c(F)c3)C2)nc2ccccc21 (stereo unspecified)

>  <Group>
N

$$$$
>  <Molecule>
Cc1cccc(NC(=O)c2cccc(NC(=O)c3nc4ccccc4n3C)c2)c1C

>  <Group>
N

$$$$
>  <Molecule>
Cn1c(C2CC(=O)N(C3CCCCC3)C2)nc2ccccc21 (stereo unspecified)

>  <Group>
N

$$$$
>  <Molecule>
Cn1c(C2CC(=O)N(c3cccc4ccccc34)C2)nc2ccccc21 (stereo unspecified)

>  <Group>
Y

$$$$
>  <Molecule>
Cc1cccc(C(=O)NCCNC(=O)CCc2nc3ccccc3n2C)c1C

>  <Group>
Y

$$$$

---

Measured MIC, listed per entry.
Test system: Staphylococcus aureus
Experiment: Antimicrobial activity against methicillin-susceptible Staphylococcus aureus ATCC29213 measured after 24 hrs by CLSI protocol based microdilution method
Assay type: functional

>  <Compound>
Cc1ccccc1N1CC(c2nc3ccccc3n2C)CC1=O (stereo not drawn)

>  <MIC>
16 µg/mL

$$$$
>  <Compound>
Cc1c(Br)cccc1N1CC(c2nc3ccccc3[nH]2)CC1=O (stereo not drawn)

>  <MIC>
> 32 µg/mL

$$$$
>  <Compound>
COc1cccc(N2CC(c3nc4ccccc4n3C)CC2=O)c1OC (stereo not drawn)

>  <MIC>
> 32 µg/mL

$$$$

---

System: Staphylococcus aureus
Assay: Antimicrobial activity against methicillin-susceptible Staphylococcus aureus ATCC29213 measured after 24 hrs by CLSI protocol based microdilution method
Type: functional
Recorded MIC for the following compounds
Attribute measured: MIC

>  <Compound>
Cc1c(CN(C)C(=O)/C=C/c2cnc3c(c2)CCC(=O)N3)oc2ccccc12 [AFN-1252]

>  <Result>
0.008 µg/mL

$$$$
>  <Compound>
Cc1cccc(NC(=O)c2nc3ccccc3n2C)c1C

>  <Result>
> 32 µg/mL

$$$$
>  <Compound>
Cc1c(Br)cccc1N1CC(c2nc3ccccc3n2C)CC1=O (stereo not drawn)

>  <Result>
1 µg/mL

$$$$
>  <Compound>
O=C1CC(c2nc3ccccc3[nH]2)CN1c1cccc(Cl)c1F (stereo not drawn)

>  <Result>
> 32 µg/mL

$$$$
>  <Compound>
Cn1c(C2CC(=O)N(c3noc4ccccc34)C2)nc2ccccc21 (stereo not drawn)

>  <Result>
> 32 µg/mL

$$$$
>  <Compound>
Cn1c(C2CC(=O)N(c3cccc(Br)c3F)C2)nc2ccccc21 (stereo not drawn)

>  <Result>
2 µg/mL

$$$$
>  <Compound>
Cn1c(C2CC(=O)N(c3ccc(Cl)cc3)C2)nc2ccccc21 (stereo not drawn)

>  <Result>
> 32 µg/mL

$$$$
>  <Compound>
O=C1CC(c2nc3ccccc3[nH]2)CN1c1cccc2ccccc12 (stereo not drawn)

>  <Result>
> 32 µg/mL

$$$$
>  <Compound>
Cn1c(C2CC(=O)N(C3CCCCC3)C2)nc2ccccc21 (stereo not drawn)

>  <Result>
> 32 µg/mL

$$$$
>  <Compound>
Cn1c(C2CC(=O)N(c3cccc(Cl)c3F)C2)nc2ccccc21 (stereo not drawn)

>  <Result>
4 µg/mL

$$$$
>  <Compound>
Cn1c(C2CC(=O)N(c3cccc(Cl)c3)C2)nc2ccccc21 (stereo not drawn)

>  <Result>
32 µg/mL

$$$$
>  <Compound>
Cc1cccc(N2CCC(c3nc4ccccc4n3C)C2)c1C (stereo not drawn)

>  <Result>
> 32 µg/mL

$$$$
>  <Compound>
Cn1c(C2CC(=O)N(c3ccc(N4CCOCC4)cc3)C2)nc2ccccc21 (stereo not drawn)

>  <Result>
> 32 µg/mL

$$$$
>  <Compound>
Cn1c(C2CC(=O)N(c3cccc(Cl)c3Cl)C2)nc2ccccc21 (stereo not drawn)

>  <Result>
2 µg/mL

$$$$
>  <Compound>
CCn1c(C2CC(=O)N(c3cccc(Br)c3C)C2)nc2ccccc21 (stereo not drawn)

>  <Result>
2 µg/mL

$$$$
>  <Compound>
Cn1c(CCC(=O)NCc2ccccc2)nc2ccccc21

>  <Result>
> 32 µg/mL

$$$$
>  <Compound>
Cn1c(CCC(=O)NCCC(=O)NCc2ccccc2)nc2ccccc21

>  <Result>
> 32 µg/mL

$$$$
>  <Compound>
Cc1cccc(NC(=O)c2cccc(NC(=O)c3nc4ccccc4n3C)c2)c1C

>  <Result>
> 32 µg/mL

$$$$
>  <Compound>
CC(=O)c1ccc(N2CC(c3nc4ccccc4n3C)CC2=O)cc1Cl (stereo not drawn)

>  <Result>
> 32 µg/mL

$$$$
>  <Compound>
Cn1c(C2CC(=O)N(c3ccc(Br)c(Br)c3)C2)nc2ccccc21 (stereo not drawn)

>  <Result>
> 32 µg/mL

$$$$
>  <Compound>
Cn1c(C2CC(=O)N(c3cccc(F)c3F)C2)nc2ccccc21 (stereo not drawn)

>  <Result>
16 µg/mL

$$$$
>  <Compound>
Cn1ccc2c(N3CC(c4nc5ccccc5n4C)CC3=O)cccc21 (stereo not drawn)

>  <Result>
> 32 µg/mL

$$$$
>  <Compound>
Cn1c(C2CC(=O)N(c3ccccc3-c3ccccc3)C2)nc2ccccc21 (stereo not drawn)

>  <Result>
> 32 µg/mL

$$$$

---

# reported selectivity ratio; entries follow
Assay: Selectivity index, ratio of HC50 for sheep erythrocytes to MIC for Staphylococcus aureus
Assay type: toxicity
Details: read-out: Selectivity Index
Attribute measured: selectivity ratio

>  <Molecule>
Cc1c(Cl)cccc1N1CC(c2nc3ccccc3n2C)CC1=O (stereo unspecified)

>  <Attribute measured>
selectivity ratio

>  <Result>
> 64

$$$$
>  <Molecule>
Cn1c(C2CC(=O)N(c3cccc(Br)c3Cl)C2)nc2ccccc21 (stereo unspecified)

>  <Attribute measured>
selectivity ratio

>  <Result>
> 64

$$$$
>  <Molecule>
Cc1c(Br)cccc1N1CC(c2nc3ccccc3n2C)CC1=O (stereo unspecified)

>  <Attribute measured>
selectivity ratio

>  <Result>
> 128

$$$$
>  <Molecule>
COc1c(Br)cccc1N1CC(c2nc3ccccc3n2C)CC1=O (stereo unspecified)

>  <Attribute measured>
selectivity ratio

>  <Result>
> 128

$$$$
>  <Molecule>
CCn1c(C2CC(=O)N(c3cccc(Br)c3C)C2)nc2ccccc21 (stereo unspecified)

>  <Attribute measured>
selectivity ratio

>  <Result>
> 128

$$$$
>  <Molecule>
Cn1c(C2CC(=O)N(c3cccc(Cl)c3Cl)C2)nc2ccccc21 (stereo unspecified)

>  <Attribute measured>
selectivity ratio

>  <Result>
> 64

$$$$

---

Test system: Staphylococcus aureus
Assay: Antimicrobial activity against methicillin-susceptible Staphylococcus aureus ATCC29213 measured after 24 hrs by CLSI protocol based microdilution method
Assay type: functional
Attribute measured: MIC

>  <Compound>
Cc1cccc(N2CC(c3nc4ccccc4n3C)CC2=O)c1 (stereo not drawn)

>  <Result>
> 32 µg/mL

$$$$
>  <Compound>
Cc1cccc(C(=O)NCCNC(=O)c2nc3ccccc3n2C)c1C

>  <Result>
> 32 µg/mL

$$$$
>  <Compound>
Cc1cccc(N2CCC(c3nc4ccccc4n3C)CC2)c1C

>  <Result>
> 32 µg/mL

$$$$

---

Test: Hemolytic activity in sheep erythrocytes assessed as hemolysis at 128 ug/ml incubated for 1 hr by microplate reader based analysis relative to control
Type: toxicity, cell-based, Ovis aries, Erythrocyte
Settings: at 128 µg/mL, read-out: Activity
Listing: hemolysis at 1 h, 128 ug/ml of selected compounds
Attribute measured: hemolysis at 1 h, 128 ug/ml

>  <Compound>
Cn1c(C2CC(=O)N(c3cccc(Br)c3Cl)C2)nc2ccccc21 (centres undefined)

>  <Attribute measured>
hemolysis at 1 h, 128 ug/ml

>  <Result>
4.7%

$$$$
>  <Compound>
Cc1c(Br)cccc1N1CC(c2nc3ccccc3n2C)CC1=O (centres undefined)

>  <Attribute measured>
hemolysis at 1 h, 128 ug/ml

>  <Result>
5%

$$$$
>  <Compound>
Cn1c(C2CC(=O)N(c3cccc(Cl)c3Cl)C2)nc2ccccc21 (centres undefined)

>  <Attribute measured>
hemolysis at 1 h, 128 ug/ml

>  <Result>
4.3%

$$$$
>  <Compound>
COc1c(Br)cccc1N1CC(c2nc3ccccc3n2C)CC1=O (centres undefined)

>  <Attribute measured>
hemolysis at 1 h, 128 ug/ml

>  <Result>
3.4%

$$$$
